# test target: Steryl-sulfatase (Homo sapiens)
# Sequence (P08842 whole entry): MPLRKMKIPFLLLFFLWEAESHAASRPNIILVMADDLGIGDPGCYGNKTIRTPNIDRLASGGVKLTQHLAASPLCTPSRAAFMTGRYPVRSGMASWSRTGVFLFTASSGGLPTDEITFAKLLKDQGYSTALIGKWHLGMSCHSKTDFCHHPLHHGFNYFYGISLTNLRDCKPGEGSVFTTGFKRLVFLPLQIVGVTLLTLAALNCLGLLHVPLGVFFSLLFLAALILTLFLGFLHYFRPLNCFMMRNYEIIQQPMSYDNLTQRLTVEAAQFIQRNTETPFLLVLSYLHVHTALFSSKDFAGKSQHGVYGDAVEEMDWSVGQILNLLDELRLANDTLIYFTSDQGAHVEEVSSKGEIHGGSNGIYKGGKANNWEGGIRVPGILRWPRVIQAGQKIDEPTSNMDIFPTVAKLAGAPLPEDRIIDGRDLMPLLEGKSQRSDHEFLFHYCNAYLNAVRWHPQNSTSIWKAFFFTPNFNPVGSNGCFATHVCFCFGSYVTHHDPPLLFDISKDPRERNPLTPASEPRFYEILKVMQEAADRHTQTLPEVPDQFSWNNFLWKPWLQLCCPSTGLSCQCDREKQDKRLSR
Label 1 when IC50 < 500 nM; otherwise -1.

{"record smiles": "NS(=O)(=O)Oc1ccc2ccc(=O)oc2c1", "test target": "Steryl-sulfatase (Homo sapiens)", "class": -1}
{"record smiles": "CCCCOP(=O)(Nc1ccc(-c2cc3ccc(OS(N)(=O)=O)cc3oc2=O)cc1)OCCCC", "test target": "Steryl-sulfatase (Homo sapiens)", "class": 1}
{"record smiles": "CC1(C)COP(=O)(Nc2ccc(-c3cc4ccc(OS(N)(=O)=O)cc4oc3=O)cc2)OC1", "test target": "Steryl-sulfatase (Homo sapiens)", "class": 1}
{"record smiles": "COP(=O)(Nc1ccc(-c2cc3ccc(OS(N)(=O)=O)cc3oc2=O)cc1)OC", "test target": "Steryl-sulfatase (Homo sapiens)", "class": -1}
{"record smiles": "NS(=O)(=O)Oc1ccc2cc(-c3ccc(NP4(=O)OCCCO4)cc3)c(=O)oc2c1", "test target": "Steryl-sulfatase (Homo sapiens)", "class": -1}

Just for reference, ChEMBL document CHEMBL3817801 is where these values come from.
